System: ABCG1
testDetails: Gene regulation by LXR: ABCG1, human foreskin fibroblasts (serum-free)
Type: cell-based
runConditions: Fibroblast
// reported EC50 for each item listed
Number only, in µM; omit the unit.

Example entries begin here.
chemSmiles	subjectOfTest	EC50 / µM
CC(C)c1cnc2c(Cl)cccc2c1-c1cccc(OC(=O)c2ccc(S(C)(=O)=O)cc2)c1	ABCG1	0.045
CCS(=O)(=O)c1cccc(C(=O)Oc2cccc(-c3c(-c4ccccc4)cnc4c(Cl)cccc34)c2)c1	ABCG1	0.0068
CCc1cnc2c(C(F)(F)F)cccc2c1-c1cccc(OC(=O)c2cccc(S(C)(=O)=O)c2)c1	ABCG1	0.036
Cc1ccc(S(=O)(=O)N(C)C)cc1C(=O)Oc1cccc(-c2c(C(C)C)cnc3c(Cl)cccc23)c1	ABCG1	0.05
CCS(=O)(=O)c1cccc(C(=O)Oc2cccc(-c3c(C(C)C)cnc4c(C(F)(F)F)cccc34)c2)c1	ABCG1	0.037
CCS(=O)(=O)c1cccc(C(=O)Oc2cccc(-c3c(C)cnc4c(C(F)(F)F)cccc34)c2)c1	ABCG1	0.25

Suppose we examine the compound CNS(=O)(=O)c1cccc(C(=O)Oc2cccc(-c3c(C(C)C)cnc4c(Cl)cccc34)c2)c1 ; what EC50 value has been reported?
0.008

Cited source for all entries: patent US20120010205A1
